# Assay System: glucosylceramide synthase (GCS) (Homo sapiens (Human), UniProt Q16739)
# Sequence (Q16739 whole entry): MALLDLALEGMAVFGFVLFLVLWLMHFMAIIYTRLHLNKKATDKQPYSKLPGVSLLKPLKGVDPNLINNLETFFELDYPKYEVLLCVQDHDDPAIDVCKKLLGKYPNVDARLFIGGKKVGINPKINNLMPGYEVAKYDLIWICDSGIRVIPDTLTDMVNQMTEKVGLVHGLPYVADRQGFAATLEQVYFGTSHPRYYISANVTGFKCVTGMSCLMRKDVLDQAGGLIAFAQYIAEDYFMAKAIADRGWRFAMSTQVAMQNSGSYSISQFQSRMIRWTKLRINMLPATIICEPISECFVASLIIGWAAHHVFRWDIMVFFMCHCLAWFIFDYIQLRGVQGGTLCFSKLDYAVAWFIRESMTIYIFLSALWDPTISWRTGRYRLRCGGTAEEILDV
# Measurement Description: UDP-Glo glucosylceramide synthase biochemical assay
# Assay Conditions: endogenous GCS in Golgi preparations isolated from human A375 malignant melanoma skin cells; UDP detection by luminescence
API: label(entry) gives T if the entry's IC50 is strictly smaller than 1000 nM; on equality or larger values it gives F.

> print(dat)
                                   compound                              assay.system  group
1  N#Cc1cnc(C2CC2)nc1OC[C@H]1CCN(c2cccc(-c3ncco3)c2)C1 [Compound 9]  glucosylceramide synthase (GCS) (Homo sapiens (Human), UniProt Q16739)      T
2  N#Cc1cnc(C2CC2)nc1OC1CCc2ccc(OC(F)(F)F)cc21 (centres unmarked) [Compound 97]  glucosylceramide synthase (GCS) (Homo sapiens (Human), UniProt Q16739)      T
3  Cc1ccc(-c2noc(CN3CCN(c4nc(C5CC5)ncc4C#N)CC3)n2)cc1 [Compound 88]  glucosylceramide synthase (GCS) (Homo sapiens (Human), UniProt Q16739)      T

Query block: Lab note: confirm whether the reported IC50 for this compound is below 1000 nM, equality not counting. compound: N#Cc1cnc(C2CC2)nc1OC[C@H]1CCN(c2ccnc(C3CCC3)c2)C1 [Compound 27]
Result block: F

Query block: I wonder whether N#Cc1cnc(C2CC2)nc1N1CCC2(CC1)Cc1cc(F)ccc1O2 [Compound 64] has IC50 below 1000 nM. Can you tell?
Result block: F

Query block: Item N#Cc1cnc(C2CC2)nc1OC[C@H]1CCN(c2ccc(-c3cnco3)cc2)C1 [Compound 22] : IC50 beneath 1000 nM, strictly?
Result block: T

Query block: For Cc1nc(N2CC(c3nc4ccccc4[nH]3)C2)cc(N2CC(CC(C)C)CC2=O)n1 (centres unmarked) [Compound 118] , is the recorded IC50 below the cut-off of 1000 nM?
Result block: F

Query block: I wonder whether N#Cc1cnc(C2CC2)nc1N1Cc2cccn3c(C(=O)NCC4CC4)cc(c23)C1 [Compound 65] has IC50 below 1000 nM. Can you tell?
Result block: T

Query block: Could you please tell me whether IC50 recorded for OCc1cnc(C2CC2)nc1OC1CCN(c2ccc(C(F)(F)F)nc2)CC1 [Compound 6] is less than 1000 nM?
Result block: F

Query block: Does this compound meet the criterion IC50 < 1000 nM? CCC(C)c1nc2c(s1)CCCC2Nc1nc(C2CC2)nc(Cl)c1CO (centres unmarked) [Compound 116]
Result block: F

Query block: Report whether reported IC50 is lower than 1000 nM (strictly) for N#Cc1cnc(C2CC2)nc1OC[C@H]1CCN(c2ncccc2C(F)F)C1 [Compound 26]
Result block: F

Query block: Given the entry N#Cc1cnc(C2CC2)nc1OCC1CCN(c2ccccc2)C1 (centres unmarked) [Compound 100] , would its reported IC50 be below 1000 nM?
Result block: T

Query block: In plain terms, does N#Cc1cnc(C2CC2)nc1N1CCOCC1c1ccccc1F (centres unmarked) [Compound 68] come in under 1000 nM for IC50?
Result block: T

Query block: Input N#Cc1cnc(C2CC2)nc1OC[C@H]1CCN(c2ccc(-n3ccnc3)cc2)C1 [Compound 31] ; condition: IC50 strictly below 1000 nM. Does it hold?
Result block: T

Query block: Quick check: IC50 of N#Cc1cnc(C2CC2)nc1NC1CCN(Cc2ccccc2)C1c1ccccc1 (centres unmarked) [Compound 82] under 1000 nM?
Result block: T

Query block: Please indicate whether the reported IC50 of N#Cc1cnc(C2CC2)nc1OC[C@H]1CCN(c2ccc(-n3cccn3)cc2)C1 [Compound 7] is strictly below 1000 nM.
Result block: T

Query block: Say whether its IC50 is strictly beneath 1000 nM. Entry: N#Cc1cnc(C2CC2)nc1N(CC1CCCO1)CC1CC2C=CC1C2 (centres unmarked) [Compound 74]
Result block: T

Query block: Please state whether IC50 is below 1000 nM for Cc1nc(N2CC(c3nc4ccccc4n3C)C2)cc(N2CC(c3ccccc3)CC2=O)n1 (centres unmarked) [Compound 119]
Result block: F

Query block: Record N#Cc1cnc(C2CC2)nc1N1CCC(O)(c2cccc(C(F)(F)F)c2)CC1 [Compound 73] : is its IC50 strictly below 1000 nM?
Result block: F

Query block: Answer whether the compound N#Cc1cnc(C2CC2)nc1N1CC2CCCC1CN(Cc1ccccc1)C2 (centres unmarked) [Compound 72] has IC50 strictly less than 1000 nM
Result block: F

Query block: Lab note: confirm whether the reported IC50 for this compound is below 1000 nM, equality not counting. compound: N#Cc1cnc(C2CC2)nc1OC[C@H]1CCN(c2ccc(-c3ncco3)cc2)C1 [Compound 11]
Result block: T

Query block: Dear reviewer, please state whether CC1(COc2nc(C3CC3)ncc2C#N)CCN(c2ncc(C(F)(F)F)cn2)C1 (centres unmarked) [Compound 52] has IC50 strictly beneath 1000 nM.
Result block: T
